Data origin: the supplement of paper PMC9112550

tested on: Escherichia coli TOP10; assay: shrunken log2 fold change of peptide-encoding DNA abundance (4.5 h post-induction vs induction); higher = less antimicrobial activity (less host growth inhibition); conditions: time post-induction: 4.5 h; library: site-saturation at positions 5, 18, 19, 20;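 further: peptides expressed intracellularly from a pBAD plasmid library in pooled LB shake-flask culture, induced with 0.3% L-arabinose, DNA abundance read by NGS, three biological replicates, DESeq2 with apeglm shrinkage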
I'd appreciate it if you could supply shrunken log2 fold change values for the items below.
Numbers only.

Answered cases to consult:
seq	numeric.readout
RRIRGRPPRLPRPRPRPAKQPRP	0.199
RRIRIRPPRLPRPRPRPHWNPRP	-0.758

Consider the following items and state reported shrunken log2 fold change for each.
1. RRIRWRPPRLPRPRPRPICCPRP
2. RRIRGRPPRLPRPRPRPGHKPRP
3. RRIRRRPPRLPRPRPRPGSIPRP
4. RRIRARPPRLPRPRPRPSKDPRP
5. RRIRMRPPRLPRPRPRPKDEPRP

0.149
0.173
-0.0979
-0.111
1.75

State recorded shrunken log2 fold change for all listed sequences.
1. RRIRLRPPRLPRPRPRPTNNPRP
2. RRIRSRPPRLPRPRPRPCPGPRP
3. RRIRCRPPRLPRPRPRPWCFPRP
4. RRIRWRPPRLPRPRPRPAFYPRP
5. RRIRARPPRLPRPRPRPFWLPRP
6. RRIRVRPPRLPRPRPRPRPDPRP
7. RRIRRRPPRLPRPRPRPAKHPRP
8. RRIRDRPPRLPRPRPRPWWNPRP

[-0.524, -0.234, -0.712, 0.371, 0.0704, 0.216, 0.219, -0.0921]

Below are some sequences; for each one, tell me its shrunken log2 fold change.
1. RRIRRRPPRLPRPRPRPMQWPRP
2. RRIRYRPPRLPRPRPRPGLPPRP
3. RRIRARPPRLPRPRPRPYVRPRP
4. RRIRTRPPRLPRPRPRPNTIPRP
5. RRIRYRPPRLPRPRPRPWFEPRP

0.103
0.107
-0.377
-0.596
-0.2
